system: human TrkC (Homo sapiens)
Construct: Full length human TRKA, TRKB and TRKC cDNAs were synthesized by Blue Heron Biotechnology; expressed in transfected cells
Sequence (Q16288 32-825 isoform Q16288-3 limits assumed): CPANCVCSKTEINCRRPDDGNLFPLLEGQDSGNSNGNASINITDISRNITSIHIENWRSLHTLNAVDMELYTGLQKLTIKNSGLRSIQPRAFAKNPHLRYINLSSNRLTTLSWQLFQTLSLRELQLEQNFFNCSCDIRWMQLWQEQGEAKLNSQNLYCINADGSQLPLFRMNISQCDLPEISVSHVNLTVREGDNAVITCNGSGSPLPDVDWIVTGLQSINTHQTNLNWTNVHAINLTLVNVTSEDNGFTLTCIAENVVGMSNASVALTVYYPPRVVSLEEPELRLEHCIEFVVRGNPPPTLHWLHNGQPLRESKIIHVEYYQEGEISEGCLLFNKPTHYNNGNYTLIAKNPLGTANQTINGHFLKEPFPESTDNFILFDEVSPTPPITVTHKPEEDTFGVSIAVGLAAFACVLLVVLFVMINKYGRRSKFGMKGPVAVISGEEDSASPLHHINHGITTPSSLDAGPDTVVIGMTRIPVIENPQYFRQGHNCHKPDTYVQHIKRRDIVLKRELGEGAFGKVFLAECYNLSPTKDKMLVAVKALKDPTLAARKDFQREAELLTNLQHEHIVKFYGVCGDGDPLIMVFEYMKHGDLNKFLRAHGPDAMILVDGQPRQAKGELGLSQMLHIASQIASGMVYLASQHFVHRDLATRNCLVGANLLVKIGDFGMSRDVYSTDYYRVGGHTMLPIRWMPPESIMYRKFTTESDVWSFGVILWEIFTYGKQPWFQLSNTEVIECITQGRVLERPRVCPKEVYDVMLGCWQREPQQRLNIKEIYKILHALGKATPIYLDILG
assayMethodText: Inhibition of NT-3-induced beta-lactamase activity in TrkC-NFAT-bla CHO-K1 cells
Format: cell-based
protocolConditions: NT-3-induced; read-out: IC50, TrkC-mediated NFAT-bla reporter activity
pIC50: −log10 of the molar value.
readoutLabel: pIC50

// query # pIC50 lookup, item CC(C)(C)c1cc(/C=C(\C#N)C(N)=S)cc(C(C)(C)C)c1O [AG879]
// result ~6.00
